Tested on: Caco-2 cancer cells
Test: Cell cycle assay PI staining flow cytometry
Assay type: cell-based
Conditions: Caco-2, IC50 dose, 24 h
Readings of % S for the listed compounds
Answer format: numeric, % implied, no suffix.

Would you please look over these solved cases?
# query: % S of entry COC(=O)c1ccc2cc(-c3ccc4c(c3)CCCO4)ccc2c1 [Compound 3b, Methyl 6-(chroman-6-yl)−2-naphthoate]
3.31

O=C(O)c1ccc2cc(-c3ccc4c(c3)CCCO4)ccc2c1 [Compound 4b, 6-(chroman-6-yl)−2-naphthoic acid] , same question.
4.16

CC1=C(/C=C/C(C)=C/C=C/C(C)=C/C(=O)O)C(C)(C)CCC1 [ATRA, all-trans-retinoic acid, reference compound] , same question.
5.39

COC(=O)c1ccc2cc(-c3ccc4c(c3)CCCN4)ccc2c1 [Compound 3a] , same question.
4.13

From here, focus on the item given below.
# query: % S of entry O=C(O)c1ccc2cc(-c3ccc4c(c3)CCCN4)ccc2c1 [Compound 4a]
3.53
